The reported numbers originate from patent EP0934932A1.

These compounds were tested on human dopamine D4 receptor (Homo sapiens); Ki is the recorded read-out.
Sequence (P21917 whole entry): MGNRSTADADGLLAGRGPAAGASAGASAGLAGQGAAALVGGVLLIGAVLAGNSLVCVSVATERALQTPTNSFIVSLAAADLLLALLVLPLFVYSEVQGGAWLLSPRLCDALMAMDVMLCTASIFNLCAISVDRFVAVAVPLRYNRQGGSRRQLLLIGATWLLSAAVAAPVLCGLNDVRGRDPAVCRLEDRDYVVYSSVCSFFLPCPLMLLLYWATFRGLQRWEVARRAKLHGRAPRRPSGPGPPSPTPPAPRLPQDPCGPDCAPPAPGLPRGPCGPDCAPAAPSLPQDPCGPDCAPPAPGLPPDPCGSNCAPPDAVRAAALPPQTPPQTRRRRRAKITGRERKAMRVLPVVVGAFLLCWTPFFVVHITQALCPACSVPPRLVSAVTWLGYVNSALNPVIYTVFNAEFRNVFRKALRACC
Provide a numeric answer, followed by its unit.

Worked set:
• O=c1ccc2ccccc2n1CCCN1CCC(Oc2ccc(Cl)cc2)CC1 = 2 nM
• O=c1ccc2ccccc2n1CCCN1CCN(Cc2ccc(F)c(F)c2)CC1 = 18 nM
• Cc1ccc(CN2CCC(CCCN3C(=O)CCc4ccccc43)CC2)cc1 = 1 nM
• O=C1CSc2ccccc2N1CCCC1CCN(Cc2ccc(F)cc2)CC1 = 7.6 nM
• O=c1ccc2ccccc2n1CCCC1CCN(Cc2ccc(F)c(F)c2)CC1 = 6 nM
• O=C1CCc2ccccc2N1CCN1CCN(CC2CCCCC2)CC1 = 34 nM

Measured Ki (human dopamine D4 receptor (Homo sapiens)), entry `O=C1CCc2ccccc2N1CCCC1CCN(Cc2ccc(F)c(F)c2)CC1` : 5.7 nM

Measured Ki (human dopamine D4 receptor (Homo sapiens)), entry `Cc1cccc(CN2CCC(CCCN3C(=O)CCc4ccccc43)CC2)c1` : 7.5 nM

Measured Ki (human dopamine D4 receptor (Homo sapiens)), entry `O=C1CSc2ccccc2N1CCCC1CCN(Cc2ccc(Cl)cc2)CC1` : 1 nM
